# Target or test system: GST-Bcl-XL (Homo sapiens, UniProt Q07817)
# Sequence (Q07817 whole entry): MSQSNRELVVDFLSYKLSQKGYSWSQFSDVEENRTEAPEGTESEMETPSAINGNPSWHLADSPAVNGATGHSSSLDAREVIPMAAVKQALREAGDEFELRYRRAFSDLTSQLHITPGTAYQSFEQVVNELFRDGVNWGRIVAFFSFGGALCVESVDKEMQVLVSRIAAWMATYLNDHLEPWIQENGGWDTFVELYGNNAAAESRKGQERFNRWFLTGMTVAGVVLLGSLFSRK
# Procedure text: TR-FRET binding assay, GST-Bcl-XL with F-Bak peptide probe
# Test settings: TR-FRET Binding Affinity, GST-Bcl-XL, F-Bak peptide probe
Quick reference: pKi of the listed items.
Keep it numeric: pKi is minus log10 of the concentration in mol/L.

# count of solved cases: 3
So what's the measured pKi for this one? O=C(NS(=O)(=O)c1ccc(NCC2CCOCC2)c([N+](=O)[O-])c1)c1ccc(N2CCN(CC3=C(c4ccc(Cl)cc4)CCC(O)C3)CC2)cc1Oc1ccc2[nH]ccc2c1 (stereo not shown)
6.81

Fill blank: measured pKi of the compound CN(C)CCCNc1ccc(S(=O)(=O)NC(=O)c2ccc(N3CCN(CC4=C(c5ccc(Cl)cc5)CC(C)(C)CC4)CC3)cc2Oc2ccc3[nH]ccc3c2)cc1C#N is ____.
7.18

What value of pKi has been reported for the following compound? CC1(C)CCC(CN2CCN(c3ccc(C(=O)NS(=O)(=O)c4ccc(NCCCN5CCOCC5)c([N+](=O)[O-])c4)c(Oc4cccc5[nH]ccc45)c3)CC2)=C(c2ccc(Cl)cc2)C1
7.60

Proceeding to the next compound to report its pKi.
Suppose we examine the compound CC1(C)CCC(CN2CCN(c3ccc(C(=O)NS(=O)(=O)c4ccc(OCC5(F)CCOCC5)c([N+](=O)[O-])c4)c(Oc4cccc5[nH]ccc45)c3)CC2)=C(c2ccc(Cl)cc2)C1 ; what pKi value has been reported?
7.32
